- tested_on: Stb5 (UniProt P38699)
- Sequence: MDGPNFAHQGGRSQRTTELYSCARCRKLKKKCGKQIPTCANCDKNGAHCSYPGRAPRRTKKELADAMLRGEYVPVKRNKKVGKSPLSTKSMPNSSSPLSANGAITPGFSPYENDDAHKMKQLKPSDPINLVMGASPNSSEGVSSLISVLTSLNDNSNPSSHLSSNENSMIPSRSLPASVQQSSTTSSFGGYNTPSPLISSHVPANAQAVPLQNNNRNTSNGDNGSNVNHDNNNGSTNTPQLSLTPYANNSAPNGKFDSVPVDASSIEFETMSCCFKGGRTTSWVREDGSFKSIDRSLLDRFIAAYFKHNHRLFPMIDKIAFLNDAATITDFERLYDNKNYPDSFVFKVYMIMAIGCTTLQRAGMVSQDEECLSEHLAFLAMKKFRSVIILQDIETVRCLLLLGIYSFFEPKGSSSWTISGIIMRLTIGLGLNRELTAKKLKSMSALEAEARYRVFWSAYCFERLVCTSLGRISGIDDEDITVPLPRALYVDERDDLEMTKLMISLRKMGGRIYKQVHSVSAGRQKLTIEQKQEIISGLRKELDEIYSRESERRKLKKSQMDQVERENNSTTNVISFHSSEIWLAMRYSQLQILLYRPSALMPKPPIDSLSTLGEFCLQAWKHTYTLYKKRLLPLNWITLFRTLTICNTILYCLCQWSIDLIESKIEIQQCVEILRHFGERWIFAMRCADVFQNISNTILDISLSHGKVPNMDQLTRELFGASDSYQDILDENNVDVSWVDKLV
- run_description: PBM E-score (8-mer binding enrichment) (E-score (-0.5 to 0.5)); higher = stronger / more preferred TF binding
- condition_description: protein concentration: 200 nM; construct: GST-full length
Whole data set: some 33,000 sequences, median “E-score (-0.5 to 0.5)” near -0.054, cut for the highest 2% near 0.35. The full list was thinned out, with the highest values kept by preference.
Threshold rule: PBM E-score greater than or equal to -0.07 is Fulfilled; below that, Not fulfilled.

{"macromolecule_sequence": "CCCCGGGC", "group": "Fulfilled"}
{"macromolecule_sequence": "TCCGTGAA", "group": "Fulfilled"}
{"macromolecule_sequence": "CGTGTACA", "group": "Fulfilled"}
{"macromolecule_sequence": "AAGAAGTA", "group": "Not fulfilled"}
{"macromolecule_sequence": "ACCCGGGG", "group": "Fulfilled"}
{"macromolecule_sequence": "AGCTGTTA", "group": "Not fulfilled"}
{"macromolecule_sequence": "CTTTTTAC", "group": "Fulfilled"}
{"macromolecule_sequence": "CCCCGGGA", "group": "Fulfilled"}
{"macromolecule_sequence": "CGACTCCA", "group": "Not fulfilled"}
{"macromolecule_sequence": "AGCTCCGG", "group": "Fulfilled"}
{"macromolecule_sequence": "GGCCTAGA", "group": "Not fulfilled"}
{"macromolecule_sequence": "ACGGGTAG", "group": "Fulfilled"}
{"macromolecule_sequence": "GGCTCCGA", "group": "Fulfilled"}
{"macromolecule_sequence": "CTGTTCGC", "group": "Not fulfilled"}
{"macromolecule_sequence": "ACAAAGAG", "group": "Not fulfilled"}
{"macromolecule_sequence": "AGCTCCGC", "group": "Fulfilled"}
{"macromolecule_sequence": "CGCTCCGA", "group": "Fulfilled"}
{"macromolecule_sequence": "CCTTTTGA", "group": "Not fulfilled"}
{"macromolecule_sequence": "CGCTGTTA", "group": "Fulfilled"}
{"macromolecule_sequence": "CGGTATAG", "group": "Fulfilled"}
{"macromolecule_sequence": "AGCGCCTC", "group": "Fulfilled"}

* * *

- tested_on: Stb5 (UniProt P38699)
- Sequence: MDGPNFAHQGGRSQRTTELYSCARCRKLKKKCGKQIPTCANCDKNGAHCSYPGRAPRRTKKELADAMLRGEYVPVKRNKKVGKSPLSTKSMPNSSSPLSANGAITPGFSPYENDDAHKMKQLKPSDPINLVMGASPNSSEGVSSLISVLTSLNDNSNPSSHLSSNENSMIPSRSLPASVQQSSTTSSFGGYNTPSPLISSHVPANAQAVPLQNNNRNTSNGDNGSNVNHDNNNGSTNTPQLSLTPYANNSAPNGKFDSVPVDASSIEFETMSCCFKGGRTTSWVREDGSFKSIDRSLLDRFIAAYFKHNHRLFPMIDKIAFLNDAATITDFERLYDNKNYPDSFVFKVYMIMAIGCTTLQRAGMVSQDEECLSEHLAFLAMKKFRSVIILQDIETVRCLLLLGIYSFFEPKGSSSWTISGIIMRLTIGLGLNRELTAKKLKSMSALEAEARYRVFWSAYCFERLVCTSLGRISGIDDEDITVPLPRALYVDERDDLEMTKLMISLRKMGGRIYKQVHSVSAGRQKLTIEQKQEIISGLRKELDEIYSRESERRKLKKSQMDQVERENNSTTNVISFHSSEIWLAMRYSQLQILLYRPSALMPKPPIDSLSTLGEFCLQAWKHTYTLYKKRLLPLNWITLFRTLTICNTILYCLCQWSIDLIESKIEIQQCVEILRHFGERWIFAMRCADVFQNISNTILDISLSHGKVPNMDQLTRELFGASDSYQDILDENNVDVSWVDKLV
- run_description: PBM E-score (8-mer binding enrichment) (E-score (-0.5 to 0.5)); higher = stronger / more preferred TF binding
- condition_description: protein concentration: 200 nM; construct: GST-full length
The full ranking holds about 33,000 sequences; the median of “E-score (-0.5 to 0.5)” is about -0.054, and the highest 2% start at about 0.35. The sample as a whole holds a higher share of the highest values than the screen did.
Reported PBM E-score values follow for various sequences

{"macromolecule_sequence": "GCACTCAA", "tested_on": "Stb5 (UniProt P38699)", "PBM E-score": -0.0587}
{"macromolecule_sequence": "CTGACTTC", "tested_on": "Stb5 (UniProt P38699)", "PBM E-score": 0.00183}
{"macromolecule_sequence": "ATAAGCCA", "tested_on": "Stb5 (UniProt P38699)", "PBM E-score": -0.107}
{"macromolecule_sequence": "ATAGCACG", "tested_on": "Stb5 (UniProt P38699)", "PBM E-score": -0.0126}
{"macromolecule_sequence": "ACAGTTAC", "tested_on": "Stb5 (UniProt P38699)", "PBM E-score": -0.0633}
{"macromolecule_sequence": "ACCCCTAC", "tested_on": "Stb5 (UniProt P38699)", "PBM E-score": -0.171}
{"macromolecule_sequence": "ATAAGACC", "tested_on": "Stb5 (UniProt P38699)", "PBM E-score": 0.397}
{"macromolecule_sequence": "CTAAGGCC", "tested_on": "Stb5 (UniProt P38699)", "PBM E-score": 0.262}
{"macromolecule_sequence": "CTAAGACC", "tested_on": "Stb5 (UniProt P38699)", "PBM E-score": 0.22}
{"macromolecule_sequence": "CGGACTCC", "tested_on": "Stb5 (UniProt P38699)", "PBM E-score": 0.231}
{"macromolecule_sequence": "ATAGCGCG", "tested_on": "Stb5 (UniProt P38699)", "PBM E-score": 0.0127}
{"macromolecule_sequence": "CAGTGCGC", "tested_on": "Stb5 (UniProt P38699)", "PBM E-score": -0.135}
{"macromolecule_sequence": "AGGACTGA", "tested_on": "Stb5 (UniProt P38699)", "PBM E-score": -0.184}
{"macromolecule_sequence": "AGGCACCA", "tested_on": "Stb5 (UniProt P38699)", "PBM E-score": -0.0686}
{"macromolecule_sequence": "AATCCCAA", "tested_on": "Stb5 (UniProt P38699)", "PBM E-score": 0.0066}
{"macromolecule_sequence": "ATAAGACG", "tested_on": "Stb5 (UniProt P38699)", "PBM E-score": -0.111}
{"macromolecule_sequence": "ACACGGCC", "tested_on": "Stb5 (UniProt P38699)", "PBM E-score": 0.116}
{"macromolecule_sequence": "ATAAAGCC", "tested_on": "Stb5 (UniProt P38699)", "PBM E-score": 0.359}
{"macromolecule_sequence": "GGGACTCA", "tested_on": "Stb5 (UniProt P38699)", "PBM E-score": -0.0395}
{"macromolecule_sequence": "GGGACTGA", "tested_on": "Stb5 (UniProt P38699)", "PBM E-score": -0.172}
{"macromolecule_sequence": "TCAGCAGA", "tested_on": "Stb5 (UniProt P38699)", "PBM E-score": -0.329}
{"macromolecule_sequence": "CGACTAAC", "tested_on": "Stb5 (UniProt P38699)", "PBM E-score": 0.00814}
